tested.system: enkephalinase (Mus musculus)
Sequence (Q61391 1-750): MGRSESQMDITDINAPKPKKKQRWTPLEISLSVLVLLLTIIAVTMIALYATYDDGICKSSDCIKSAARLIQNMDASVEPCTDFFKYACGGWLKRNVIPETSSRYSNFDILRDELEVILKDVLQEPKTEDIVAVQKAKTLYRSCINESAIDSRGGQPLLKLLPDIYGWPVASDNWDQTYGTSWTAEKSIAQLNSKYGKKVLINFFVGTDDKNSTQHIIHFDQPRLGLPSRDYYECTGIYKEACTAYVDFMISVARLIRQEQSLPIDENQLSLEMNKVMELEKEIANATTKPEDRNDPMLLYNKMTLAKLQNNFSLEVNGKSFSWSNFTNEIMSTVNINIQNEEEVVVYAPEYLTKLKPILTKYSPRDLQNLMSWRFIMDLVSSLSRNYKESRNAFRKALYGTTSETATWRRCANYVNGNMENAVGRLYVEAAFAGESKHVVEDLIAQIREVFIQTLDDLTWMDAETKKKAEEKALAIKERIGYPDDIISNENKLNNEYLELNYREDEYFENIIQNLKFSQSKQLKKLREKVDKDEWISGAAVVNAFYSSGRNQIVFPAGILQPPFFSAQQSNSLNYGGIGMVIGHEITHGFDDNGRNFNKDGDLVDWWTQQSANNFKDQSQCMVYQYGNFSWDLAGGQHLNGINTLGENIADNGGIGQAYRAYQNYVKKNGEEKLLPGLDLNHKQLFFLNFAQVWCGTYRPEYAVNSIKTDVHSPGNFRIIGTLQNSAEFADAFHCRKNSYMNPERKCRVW
quantity.kind: pIC50
Lab note — pIC50 values are minus log10 of concentrations in M.

Data request, read-out pIC50, for "COC(=O)[C@H](C)NC(=O)[C@H](CSC(C)=O)Cc1ccccc1" 8.52

Data request, read-out pIC50, for CC(=O)SCC(Cc1ccccc1)C(=O)NCC(=O)OCc1ccccc1 (single isomer, unassigned) [Compound (2)] 8.52

Data request, read-out pIC50, for CC(=O)SCC(Cc1ccccc1)C(=O)NCC(=O)OCc1ccccc1 (single isomer, unassigned) [Compound (1)] 8.70

Where do the numbers come from? From patent US5136076A.
